measured.metric: melting point

{"compound": "CCOC(=O)c1c(C)nc(-c2nccs2)nc1-c1ccccc1", "reported.value": "93 to 94 °C"}
{"compound": "CCOCCOC(=O)C1=C(C)NC(c2ncc(F)cc2F)=NC1c1ccc(F)cc1Cl (stereo not shown) (hydrate or solvate)", "reported.value": "143 to 144 °C"}
{"compound": "CCOC(=O)C1=C(C)NC(c2ncc(F)cc2F)=NC1c1ccc(F)cc1 (stereo not shown) (hydrate or solvate)", "reported.value": "126 to 127 °C"}
{"compound": "CC1=C(C(=O)Nc2ccccn2)C(c2ccc(F)cc2Cl)N=C(c2ncc(F)cc2F)N1 (stereo not shown) (hydrate or solvate)", "reported.value": "152 to 153 °C"}

====

# test.method.notes: MTT viability assay in BHK-21 cells
# Type: cell-based, hamster
# reported.conditions: hamster, 200 µM, read-out: Cell viability, percentage from untreated cells
# Protocol: BHK-21 cells were incubated with different concentrations (6.125, 12.25, 25, 50, 100, and 200 µM) of the respective compounds and the cell viability was calculated as a percentage from untreated cells (100%) (Figure 7). […] Additionally, cell viability was determined by tetrazolium salt-based assay using the Vybrant MTT Cell Proliferation kit (Thermo Fisher Scientific, Waltham, MA, USA) or more sensitive CCK-8 kit (Abcam). […]

{"molecule": "CCCOCCOC(=O)C1=C(C)NC(c2ncc(F)cc2F)=NC1c1ccc(F)cc1Cl (centres unmarked) [1f]", "viability at 24 h, 200 µM": "> 90%"}
{"molecule": "COc1ccccc1NC(=O)C1=C(C)NC(c2ncc(F)cc2F)=NC1c1ccc(F)cc1Cl (centres unmarked) [1i]", "viability at 24 h, 200 µM": "71%"}
{"molecule": "CC1=C(C(=O)OCCOC(C)C)C(c2ccc(F)cc2Cl)N=C(c2ncc(F)cc2F)N1 (centres unmarked) [1e]", "viability at 24 h, 200 µM": "> 90%"}
{"molecule": "CC1=C(C(=O)O)C(c2ccc(F)cc2Cl)N=C(c2ncc(F)cc2F)N1 (centres unmarked) [1b]", "viability at 24 h, 200 µM": "> 90%"}
{"molecule": "CC1=C(C(=O)Nc2ccccn2)C(c2ccc(F)cc2Cl)N=C(c2ncc(F)cc2F)N1 (centres unmarked) [1h]", "viability at 24 h, 200 µM": "> 90%"}

====

# target: HBV capsid assembly (full-length HBc protein, genotype D1) (Hepatitis B virus genotype D subtype ayw, UniProt P03146, A80I/T33N/V74G)
# Sequence (P03146 whole entry A80I/T33N/V74G, looked up): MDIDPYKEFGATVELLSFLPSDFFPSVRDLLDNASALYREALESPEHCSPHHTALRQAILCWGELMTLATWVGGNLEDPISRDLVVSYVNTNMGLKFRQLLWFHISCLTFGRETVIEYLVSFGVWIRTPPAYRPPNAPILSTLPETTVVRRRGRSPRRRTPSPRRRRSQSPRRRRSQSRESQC
# test.method.notes: HBV capsid assembly in SFV1/HBc-infected HBc-producing BHK-21 cells, native agarose gel anti-HBc immunoblot
# Assay type: cell-based
# reported.conditions: HBc-producing BHK-21 cells, 1–50 μM, 24 h (Figure 5)
measured.metric: Effect on capsid production / mobility in initial test

{"compound": "CCOC(=O)C1=C(C)NC(c2ncc(F)cc2F)=NC1c1ccc(F)cc1 (stereo not drawn)", "reported.value": "inhibitory effect"}
{"compound": "CC1=C(C(=O)O)C(c2ccc(F)cc2Cl)N=C(c2ncc(F)cc2F)N1 (stereo not drawn)", "reported.value": "inhibitory effect"}
{"compound": "COC(=O)C1=C(C[N+]23CCC(CC2)C(O)C3)NC(c2ncc(F)cc2F)=NC1c1ccc(F)cc1Cl (stereo not drawn)", "reported.value": "inhibitory effect"}

====

# target: HBV capsid assembly (full-length HBc protein, genotype D1) (Hepatitis B virus genotype D subtype ayw, UniProt P03146, A80I/T33N/V74G)
# test.method.notes: HBV capsid assembly in SFV1/HBc-infected HBc-producing BHK-21 cells, native agarose gel anti-HBc immunoblot
# Format: cell-based
# reported.conditions: HBc-producing BHK-21 cells, 24 h, native agarose immunoblot
measured.metric: Effect on Capsid Assembly

{"molecule": "CCCCCCCCCCCCCCCC[n+]1ccc(C)cc1.Cc1ccc(S(=O)(=O)[O-])cc1", "reported.value": "No effect"}
{"molecule": "CCCCCC[n+]1ccc(C)cc1.Cc1ccc(S(=O)(=O)[O-])cc1", "reported.value": "No effect"}
{"molecule": "COC(=O)C1=C(C[N+]2(C)CCOCC2)NC(c2ncc(F)cc2F)=NC1c1ccc(F)cc1Cl (stereo not drawn)", "reported.value": "No effect"}
{"molecule": "COC(=O)C1=C(C[n+]2ccccc2)NC(c2ncc(F)cc2F)=NC1c1ccc(F)cc1Cl (stereo not drawn)", "reported.value": "No effect"}
{"molecule": "COC(=O)C1=C(C[N+]2(C)CCCC2)NC(c2ncc(F)cc2F)=NC1c1ccc(F)cc1Cl (stereo not drawn)", "reported.value": "No effect"}
{"molecule": "CCOC(=O)C1=C(C)NC(c2nccs2)=CC1c1ccc(F)cc1Cl (stereo not drawn)", "reported.value": "No effect"}
{"molecule": "CCOC(=O)c1c(C)nc(-c2nccs2)nc1-c1ccc(F)cc1", "reported.value": "No effect"}
{"molecule": "CCOC(=O)c1c(C)nc(-c2nccs2)nc1-c1ccccc1", "reported.value": "No effect"}

====

Measured melting point by item

{"molecule": "CCCOCCOC(=O)C1=C(C)NC(c2ncc(F)cc2F)=NC1c1ccc(F)cc1Cl (stereo not drawn) (hydrate or solvate) [1f]", "melting point": "149 to 150 °C"}
{"molecule": "COC(=O)C1=C(C[n+]2ccccc2)NC(c2ncc(F)cc2F)=NC1c1ccc(F)cc1Cl (stereo not drawn) [3a]", "melting point": "173 to 174 °C"}
{"molecule": "COC(=O)C1=C(C[N+]2(C)CCOCC2)NC(c2ncc(F)cc2F)=NC1c1ccc(F)cc1Cl (stereo not drawn) [3c]", "melting point": "181 to 182 °C"}
{"molecule": "CCOC(=O)C1=C(C)NC(c2nccs2)=NC1c1ccccc1 (stereo not drawn) (hydrate or solvate) [1k]", "melting point": "129 to 130 °C"}
{"molecule": "COC(=O)C1=C(C[N+]2(C)CCCC2)NC(c2ncc(F)cc2F)=NC1c1ccc(F)cc1Cl (stereo not drawn) [3b]", "melting point": "167 to 168 °C"}
{"molecule": "CCOC(=O)C1=C(C)NC(c2nccs2)=NC1c1ccc(F)cc1 (stereo not drawn) (hydrate or solvate) [1j]", "melting point": "114 to 115 °C"}
{"molecule": "CC1=C(C(=O)OCCOC(C)C)C(c2ccc(F)cc2Cl)N=C(c2ncc(F)cc2F)N1 (stereo not drawn) (hydrate or solvate) [1e]", "melting point": "156 to 157 °C"}
{"molecule": "COc1ccccc1NC(=O)C1=C(C)NC(c2ncc(F)cc2F)=NC1c1ccc(F)cc1Cl (stereo not drawn) (hydrate or solvate) [1i]", "melting point": "149 to 150 °C"}
{"molecule": "CCCOCCOC(=O)C1=C(C)NC(c2ncc(F)cc2F)=NC1c1ccccc1OC(F)F (stereo not drawn) (hydrate or solvate) [1g]", "melting point": "164 to 165 °C"}

====

# Tested on: BHK-21 cells
# test.method.notes: Cytopathic effect (cell morphology, proliferation, trypan blue) in non-infected BHK-21 cells
# Format: cell-based, hamster
# reported.conditions: non-infected BHK-21 cells, 24 h, no noticeable cytopathic effect

{"compound": "COC(=O)C1=C(C)NC(c2ncc(F)cc2F)=NC1c1ccc(F)cc1Cl (stereo not drawn) [1a, Bay 41-4109, reference compound]", "target": "BHK-21 cells", "The Highest Non-Toxic Concentration": "100 µM"}
{"compound": "CCCOCCOC(=O)C1=C(C)NC(c2ncc(F)cc2F)=NC1c1ccc(F)cc1Cl (stereo not drawn) [1f]", "target": "BHK-21 cells", "The Highest Non-Toxic Concentration": "100 µM"}
{"compound": "COc1ccccc1NC(=O)C1=C(C)NC(c2ncc(F)cc2F)=NC1c1ccc(F)cc1Cl (stereo not drawn) [1i]", "target": "BHK-21 cells", "The Highest Non-Toxic Concentration": "50 µM"}
{"compound": "CCCCCC[n+]1ccc(C)cc1.Cc1ccc(S(=O)(=O)[O-])cc1 [7a]", "target": "BHK-21 cells", "The Highest Non-Toxic Concentration": "50 µM"}
{"compound": "CC1=C(C(=O)Nc2ccccn2)C(c2ccc(F)cc2Cl)N=C(c2ncc(F)cc2F)N1 (stereo not drawn) [1h]", "target": "BHK-21 cells", "The Highest Non-Toxic Concentration": "150 µM"}
{"compound": "CC1=C(C(=O)O)C(c2ccc(F)cc2Cl)N=C(c2ncc(F)cc2F)N1 (stereo not drawn) [1b]", "target": "BHK-21 cells", "The Highest Non-Toxic Concentration": "50 µM"}
{"compound": "CCCOCCOC(=O)C1=C(C)NC(c2ncc(F)cc2F)=NC1c1ccccc1OC(F)F (stereo not drawn) [1g]", "target": "BHK-21 cells", "The Highest Non-Toxic Concentration": "50 µM"}
{"compound": "COC(=O)C1=C(C[N+]2(C)CCOCC2)NC(c2ncc(F)cc2F)=NC1c1ccc(F)cc1Cl (stereo not drawn) [3c]", "target": "BHK-21 cells", "The Highest Non-Toxic Concentration": "150 µM"}
{"compound": "CC1=C(C(=O)OCCOC(C)C)C(c2ccc(F)cc2Cl)N=C(c2ncc(F)cc2F)N1 (stereo not drawn) [1e]", "target": "BHK-21 cells", "The Highest Non-Toxic Concentration": "100 µM"}
